Tested on: HeLa-MaTu-ADR
Assay: Proliferation assay HeLa-MaTu-ADR
Type: cell-based, human
Conditions: cervix carcinoma, 4 days, crystal violet
Field: pIC50. Provide a value for each of the compounds that follow.
Numbers only, as −log10 of the molar value.

Worked cases, pIC50 given:
COMPOUND	OBS_VALUE
C[C@@H](O)[C@@H](C)Nc1nc(Nc2ccc(S(C)(=N)=O)cc2)ncc1C(F)(F)F (mixture of isomers)	7.62
C[C@@H](O)[C@@H](C)Oc1nc(Nc2ccc(S(=N)(=O)C3CC3)cc2)ncc1C(F)(F)F (mixture of isomers) [Example 1-SI-1]	7.46
CCS(=N)(=O)c1ccc(Nc2ncc(C(F)(F)F)c(N[C@H](C)C(C)(C)O)n2)cc1 (mixture of isomers) [Example 7-SI-1]	6.95

Go through the items and report each one's pIC50.
1. C[C@@H](Nc1nc(Nc2ccc(S(=N)(=O)C3CC3)cc2)ncc1C(F)(F)F)C(C)(C)O (mixture of isomers) [Example 5-SI-2]
2. C[C@@H](O)[C@@H](C)Oc1nc(Nc2ccc(S(=N)(=O)C3CC3)cc2)ncc1C(F)(F)F (mixture of isomers) [Example 1-SI-2]
3. C[C@@H](Nc1nc(Nc2ccc(S(=N)(=O)C3CC3)cc2)ncc1C(F)(F)F)C(C)(C)O (mixture of isomers) [Example 5-SI-1]

(A)
[7.62, 8.10, 7.20]

Go through the items and report each one's pIC50.
1. C[C@@H](O)[C@@H](C)Oc1nc(Nc2ccc(S(C)(=N)=O)cc2)ncc1C(F)(F)F (mixture of isomers) [Example 2-SI-1]
2. C[C@@H](Nc1nc(Nc2ccc(S(C)(=N)=O)cc2)ncc1C(F)(F)F)C(C)(C)O (mixture of isomers) [Example 9-SI-2]
3. CCS(=N)(=O)c1ccc(Nc2ncc(C(F)(F)F)c(N[C@H](C)C(C)(C)O)n2)cc1 (mixture of isomers) [Example 7-SI-2]
4. CCS(=N)(=O)c1ccc(Nc2ncc(C(F)(F)F)c(N[C@H](C)[C@@H](C)O)n2)cc1 (mixture of isomers)
5. C[C@@H](Nc1nc(Nc2ccc(S(C)(=N)=O)cc2)ncc1C(F)(F)F)C(C)(C)O (mixture of isomers) [Example 9-SI-1]
6. C[C@@H](O)[C@@H](C)Oc1nc(Nc2ccc(S(C)(=N)=O)cc2)ncc1C(F)(F)F (mixture of isomers) [Example 2-SI-2]

(A)
7.49
6.94
7.44
7.46
7.72
8.15

====

Tested on: Caco-2
Assay: Proliferation assay Caco-2
Format: cell-based, human
Conditions: Caco-2, colon/rectum carcinoma; 4 days, crystal violet
Field: IC50. Provide a value for each of the compounds that follow.
Give bare numbers, in nM.

COMPOUND	OUTPUT_UNIT	OBS_VALUE
C[C@@H](O)[C@@H](C)Oc1nc(Nc2ccc(S(=N)(=O)C3CC3)cc2)ncc1C(F)(F)F (mixture of isomers) [Example 1-SI-2]	nM	16

Go through the items and report each one's IC50.
1. C[C@@H](Nc1nc(Nc2ccc(S(C)(=N)=O)cc2)ncc1C(F)(F)F)C(C)(C)O (mixture of isomers) [Example 9-SI-1]
2. C[C@@H](O)[C@@H](C)Nc1nc(Nc2ccc(S(C)(=N)=O)cc2)ncc1C(F)(F)F (mixture of isomers)
3. C[C@@H](Nc1nc(Nc2ccc(S(=N)(=O)C3CC3)cc2)ncc1C(F)(F)F)C(C)(C)O (mixture of isomers) [Example 5-SI-1]
4. C[C@@H](O)[C@@H](C)Oc1nc(Nc2ccc(S(=N)(=O)C3CC3)cc2)ncc1C(F)(F)F (mixture of isomers) [Example 1-SI-1]
5. CCS(=N)(=O)c1ccc(Nc2ncc(C(F)(F)F)c(N[C@H](C)C(C)(C)O)n2)cc1 (mixture of isomers) [Example 7-SI-1]

(A)
1: 61; 2: 41; 3: 112; 4: 80; 5: 196
